outcome.measure: melting point

molecule: N#CC1(NC(=O)[C@H](Cc2cccc(Cl)c2)NC(=O)c2ccccc2)CC1 [Compound 7]
assay.value: 213 to 215 °C
--
molecule: N#CC1(NC(=O)[C@H](Cc2c[nH]c3ccccc23)NC(=O)c2ccnc3cc(Cl)ccc23)CC1 [Compound 14]
assay.value: 196 to 197 °C
--
molecule: C[C@H](OCc1ccccc1)[C@H](C#N)NC(=O)[C@H](Cc1ccccc1)NC(=O)c1cc(C(C)(C)C)nn1C [Compound 57]
assay.value: 123 to 124 °C
--
molecule: CC(C)CC(C#N)NC(=O)[C@H](Cc1ccccc1)NC(=O)c1cc(C(C)(C)C)nn1C (stereo in doubt) [Compound 53]
assay.value: 91 to 94 °C

---

# assayed.system: cathepsin B (CatB) (Homo sapiens)
# test.method.notes: Cathepsin B enzyme inhibition
# Format: biochemical
# assay.setup: SD lower than 15%; read-out: pKi CatB (converted)

compound: C[C@@H](OCc1ccccc1)[C@H](NC(=O)c1cc(C(C)(C)C)nn1C)C(=O)NC1(C#N)CC1 [Compound 12]
Ki (µM): 39.8

compound: C[C@@H](O)[C@H](NC(=O)c1cc(C(C)(C)C)nn1C)C(=O)NC1(C#N)CC1 [Compound 19]
Ki (µM): 25.1

compound: N#CC1(NC(=O)[C@H](Cc2c[nH]c3ccccc23)NC(=O)c2ccnc3cc(Cl)ccc23)CC1 [Compound 14]
Ki (µM): 20

---

# assayed.system: Leishmania mexicana CPB (LmCPB) (Leishmania mexicana)
# Sequence (P36400 126-443): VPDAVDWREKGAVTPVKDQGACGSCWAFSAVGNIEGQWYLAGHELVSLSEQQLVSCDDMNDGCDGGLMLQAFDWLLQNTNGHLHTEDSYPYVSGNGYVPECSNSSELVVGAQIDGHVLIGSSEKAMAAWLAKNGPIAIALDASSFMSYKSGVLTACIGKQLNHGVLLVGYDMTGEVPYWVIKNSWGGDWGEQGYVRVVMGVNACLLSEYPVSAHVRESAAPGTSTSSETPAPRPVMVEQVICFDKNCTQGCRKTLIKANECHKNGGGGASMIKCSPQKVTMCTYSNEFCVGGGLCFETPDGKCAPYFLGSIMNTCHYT
# test.method.notes: LmCPB enzyme inhibition
# Assay type: biochemical
# assay.setup: SD lower than 15%; read-out: pKi LmCPB (converted)

structure.as.smiles: C[C@H](O)[C@H](C#N)NC(=O)[C@H](Cc1ccccc1)NC(=O)c1cc(C(C)(C)C)nn1C
Ki: 15800 nM
//
structure.as.smiles: Cn1nc(C(C)(C)C)cc1C(=O)N[C@@H](Cc1ccccc1)C(=O)N[C@@H](C#N)Cc1ccccc1
Ki: 794 nM
//
structure.as.smiles: CC(C)C[C@H](NC(=O)c1cc(C(C)(C)C)nn1C)C(=O)NC1(C#N)CC1
Ki: 50.1 nM
//
structure.as.smiles: Cn1nc(C(C)(C)C)cc1C(=O)N[C@@H](Cc1ccccc1)C(=O)NC1(C#N)CC1
Ki: 79.4 nM
//
structure.as.smiles: N#CC1(NC(=O)[C@H](Cc2ccccc2)NC(=O)c2ccccc2)CC1
Ki: 251 nM
//
structure.as.smiles: CC(C)C[C@H](NC(=O)c1cc(C(C)(C)C)nn1C)C(=O)N[C@H](C#N)[C@@H](C)O
Ki: 200 nM

---

melting point by entry:

structure.as.smiles: CC(C)C[C@@H](C#N)NC(=O)[C@H](Cc1ccccc1)NC(=O)c1cc(C(C)(C)C)nn1C
melting point: 81 to 82 °C
--
structure.as.smiles: C[C@@H](OCc1ccccc1)[C@@H](C#N)NC(=O)[C@H](Cc1ccccc1)NC(=O)c1cc(C(C)(C)C)nn1C
melting point: 115 to 116 °C
--
structure.as.smiles: Cn1nc(C(C)(C)C)cc1C(=O)N[C@@H](Cc1ccccc1)C(=O)N[C@@H](C#N)Cc1ccccc1
melting point: 98 to 99 °C
--
structure.as.smiles: CC(C)C[C@H](NC(=O)c1cc(C(C)(C)C)nn1C)C(=O)N[C@@H](C#N)[C@H](C)OCc1ccccc1
melting point: 110 to 111 °C
--
structure.as.smiles: C[C@@H](O)[C@H](NC(=O)c1cc(C(C)(C)C)nn1C)C(=O)NC1(C#N)CC1
melting point: 201 to 202 °C
--
structure.as.smiles: Cn1nc(C(C)(C)C)cc1C(=O)N[C@@H](Cc1cccc(Cl)c1)C(=O)NC1(C#N)CC1
melting point: 152 to 154 °C
--
structure.as.smiles: CC(C)C[C@H](NC(=O)c1ccnc2cc(Cl)ccc12)C(=O)NC1(C#N)CC1
melting point: 169 to 170 °C
--
structure.as.smiles: C[C@H](O)[C@H](C#N)NC(=O)[C@H](Cc1ccccc1)NC(=O)c1cc(C(C)(C)C)nn1C
melting point: 145 to 147 °C
--
structure.as.smiles: Cn1nc(C(C)(C)C)cc1C(=O)N[C@@H](Cc1ccccc1)C(=O)N[C@H](C#N)Cc1ccccc1
melting point: 89 to 90 °C
--
structure.as.smiles: CC(C)C[C@H](NC(=O)c1ccc(N)nc1)C(=O)NC1(C#N)CC1
melting point: 100 to 101 °C
--
structure.as.smiles: N#CC1(NC(=O)[C@H](Cc2ccccc2)NC(=O)c2ccnc3cc(Cl)ccc23)CC1
melting point: 260 to 262 °C
--
structure.as.smiles: CC(C)C[C@H](NC(=O)c1cc(C(C)(C)C)nn1C)C(=O)N[C@H](C#N)[C@@H](C)O
melting point: 118 to 119 °C
--
structure.as.smiles: CC(C)C[C@H](NC(=O)c1cnc2[nH]ccc2c1)C(=O)NC1(C#N)CC1
melting point: 79 to 80 °C
--
structure.as.smiles: CC(C)C[C@H](NC(=O)c1cc(C(C)(C)C)nn1C)C(=O)N[C@@H](C#N)[C@H](C)O
melting point: 111 to 113 °C
--
structure.as.smiles: N#CC1(NC(=O)[C@H](Cc2ccccc2)NC(=O)c2cccc(OC(=O)c3ccccc3)c2)CC1
melting point: 185 to 187 °C
